- System: Vero E6 cells
- Procedure text: in vitro
- Condition notes: Vero E6 cells; Table 7, gossypol derivatives
Can you tell me CC50 for the items I'm about to list?
Answers are plain numbers, in µM.

A selection of reference data follows.
Compound: Cc1cc2c(C(C)C)c(O)c(O)c(/C=N/n3c(=O)[nH][nH]c3=O)c2c(O)c1-c1c(C)cc2c(C(C)C)c(O)c(O)c(/C=N/n3c(=O)[nH][nH]c3=O)c2c1O [ST087010]
CC50 / µM: 49.6
//
Compound: Cc1cc2nc[nH]c2c(N=Cc2c(O)c(O)c(C(C)C)c3cc(C)c(-c4c(C)cc5c(C(C)C)c(O)c(O)c(C=Nc6c(C)c(C)cc7nc[nH]c67)c5c4O)c(O)c23)c1C [ST092971]
CC50 / µM: 72.1
//
Compound: CCC(O)/N=C/c1c(O)c(O)c(C(C)C)c2cc(C)c(-c3c(C)cc4c(C(C)C)c(O)c(O)c(/C=N/C(O)CC)c4c3O)c(O)c12 (stereo not shown) [ST005138]
CC50 / µM: 22.8

With those in mind, consider the next compound.
Consider the compound shown here: Cc1cc2c(C(C)C)c(O)c(O)c3c2c(c1-c1c(C)cc2c(C(C)C)c(O)c(O)c4c2c1OC4N)OC3N (stereo not shown) [ST069299] What is its recorded CC50?
25.9

* * *

- System: ZIKV mosquito strain MEX 2-81 (2016/Mexico)
- Procedure text: Plaque reduction inhibition assay in Vero E6 cells, ZIKV MEX 2-81
- Assay type: cell-based, Zika virus (ZIKV)
- Condition notes: Vero E6 cells; Table 7, gossypol derivatives; read-out: ZIKV strains IC50, MEX 2-81
Property label: IC50 (µM)
Numbers only, in µM.

A selection of reference data follows.
Molecule: Cc1cc2nc[nH]c2c(N=Cc2c(O)c(O)c(C(C)C)c3cc(C)c(-c4c(C)cc5c(C(C)C)c(O)c(O)c(C=Nc6c(C)c(C)cc7nc[nH]c67)c5c4O)c(O)c23)c1C
Measured value: 13.5
--
Molecule: Cc1cc2c(C(C)C)c(O)c(O)c3c2c(c1-c1c(C)cc2c(C(C)C)c(O)c(O)c4c2c1OC4N)OC3N (stereo not shown)
Measured value: 3.89
--
Molecule: CCC(O)/N=C/c1c(O)c(O)c(C(C)C)c2cc(C)c(-c3c(C)cc4c(C(C)C)c(O)c(O)c(/C=N/C(O)CC)c4c3O)c(O)c12 (stereo not shown)
Measured value: 2.89

With those in mind, consider the next molecule.
Consider the molecule shown here: "Cc1cc2c(C(C)C)c(O)c(O)c(/C=N/n3c(=O)[nH][nH]c3=O)c2c(O)c1-c1c(C)cc2c(C(C)C)c(O)c(O)c(/C=N/n3c(=O)[nH][nH]c3=O)c2c1O" What is its recorded IC50?
2.92

* * *

- Tested on: Vero E6 cells
- Procedure text: in vitro
- Condition notes: African green monkey, 3 days
- Protocol: The cytotoxicity of the Z-medicaments in Vero E6 (ZIKV target cells) was evaluated using the Cell Counting Kit-8 (CCK8). Briefly, compounds at 2-fold serial dilutions were added to cells (2.0×10^4/well) pre-seeded in 96-well plates. The cells were cultured at 37° C. for 3 days, and incubated with CCK8 solution, followed by measurement of absorbance at 450 nm (A450 value) using microplate reader.
Property label: CC50

Consider the compound shown here: "Cc1cc2c(C(C)C)c(O)c(O)c(C=O)c2c(O)c1-c1c(C)cc2c(C(C)C)c(O)c(O)c(C=O)c2c1O" What is its recorded CC50?
14.2 µM
